// data source = ChEMBL document CHEMBL2331438

test system: Bacillus subtilis; experiment: Antibacterial activity against Bacillus subtilis MTCC 441 after 24 hrs by broth microdilution method; type: functional; conditions: MTCC 441, 24 h
Label key: Condition met means MIC under 200 µg/mL; Condition not met means MIC of 200 µg/mL or more.

Here are 5 compounds together with their reported answers.
For `Cc1ccc(-n2nc(C)c3c2OC(C)(C)[C@H]2COc4ccc5c(C)cc(=O)oc5c4[C@@H]32)cc1` , is the recorded MIC below the cut-off of 200 µg/mL?
Condition not met

Given CCn1cc(C(=O)O)c(=O)c2cc(F)c(N3CCNCC3)cc21 [NORFLOXACIN] , is recorded MIC strictly lower than 200 µg/mL?
Condition met

Does this compound meet the criterion MIC < 200 µg/mL? `Cc1nn(-c2ccc(Cl)c(Cl)c2)c2c1[C@@H]1c3c(ccc4c(C)cc(=O)oc34)OC[C@@H]1CO2`
Condition not met

Determine if `Cc1nn(-c2cccc(Cl)c2)c2c1[C@@H]1c3cc4cccc(C)c4nc3SC[C@@H]1CO2` shows MIC strictly lower than 200 µg/mL.
Condition not met

is_below(MIC, 200 µg/mL) for O=C(N[C@H](CO)[C@H](O)c1ccc([N+](=O)[O-])cc1)C(Cl)Cl [CHLORAMPHENICOL] ?
Condition met

More entries:
Does this compound meet the criterion MIC < 200 µg/mL? Cc1nn(-c2ccccc2Cl)c2c1[C@@H]1c3cc4cccc(C)c4nc3SC[C@@H]1C(C)(C)O2 (single isomer, unassigned)
Condition not met

Hello, I'm reviewing records and need to know if MIC of Cc1ccc(-n2nc(C)c3c2OC(C)(C)[C@H]2CSc4nc5c(C)cccc5cc4[C@@H]32)cc1 (single isomer, unassigned) is below 200 µg/mL. Could you check?
Condition met

Criterion: MIC strictly below 200 µg/mL. Is it met by `Cc1nn(-c2ccc([N+](=O)[O-])cc2)c2c1[C@@H]1c3cc4cccc(C)c4nc3SC[C@@H]1CO2` ?
Condition not met

In plain terms, does `Cc1cc(=O)oc2c3c(ccc12)OC[C@@H]1COc2c(c(-c4ccccc4)nn2-c2ccccc2)[C@H]31` come in under 200 µg/mL for MIC?
Condition met

Please indicate whether the reported MIC of `Cc1ccc(-n2nc(C)c3c2OC[C@H]2COc4ccc5c(C)cc(=O)oc5c4[C@@H]32)cc1` is strictly below 200 µg/mL.
Condition not met
